Biological target: T1, human PILRB extracellular domain (recombinant) (human, UniProt Q9UKJ0 20-191)
T1 construct: also called hPILRB
T1 sequence (Q9UKJ0 20-191 limits assumed): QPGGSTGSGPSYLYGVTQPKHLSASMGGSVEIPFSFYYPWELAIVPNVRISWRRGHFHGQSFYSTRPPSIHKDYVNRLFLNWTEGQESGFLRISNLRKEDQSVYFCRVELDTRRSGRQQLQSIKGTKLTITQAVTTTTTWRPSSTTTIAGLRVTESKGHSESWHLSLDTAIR
Experiment: SPR
QUANTITY_MEASURED: Kd

Worked set:
INSERT INTO measurements (binder, experimental_result) VALUES
  ('Anti-PILRA antibody clone 38 (antibody, V domains shown, Humanized) VH: EVQLVQSGAEVKKPGASVKVSCKASGYTFTEYYMYWVRQAPGQGLELIGRIDPEDGGTDYVEKFKNRVTATADTSTSTAYLELSSLRSEDTAVYYCASTIRGTVFVYWGQGTLVTVSS VL: DIQMTQSPSSLSASVGDRVTITCRPSEDIYNGLAWYQQKPGKAPKLLIYNANSLHTGVPSRFSGSGSGTDYTLTISSLQPEDFATYFCQQYYDYPLTFGQGTKVEIK', '35 to 53 nM'),
  ('Anti-PILRA antibody clone 37 (antibody, V domains shown, Humanized) VH: EVQLVQSGAEVKKPGASVKVSCKASGYTFTEYYMYWVRQAPGQGLELIGRIDPEDGGTDYIEKFKNRVTLTADTSTSTAYLELSSLRSEDTAVYYCATTIRGTVFAFWGQGTLVTVSS VL: DIQMTQSPSSLSASVGDRVTITCRASEDIFNGLAWYQQKPGKSPKLLIYNAKTLHTGVPSRFSGSGSGTDYTLTISSLQPEDFATYYCQQYYDYPLTFGQGTKVEIK', '100 to 150 nM'),
  ('Anti-PILRA antibody clone 39 (antibody, V domains shown, Humanized) VH: EVQLVQSGAEVKKPGASVKVSCKASGYTFTEYYMYWVRQAPGQGLELIGRIDPEDGGTDYIEKFKNRVTLTADTSTSTAYLELSSLRSEDTAVYYCATTIRGTVFAFWGQGTLVTVSS VL: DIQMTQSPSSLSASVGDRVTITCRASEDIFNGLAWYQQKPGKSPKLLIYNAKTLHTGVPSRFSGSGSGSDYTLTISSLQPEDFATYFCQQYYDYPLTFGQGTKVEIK', '38 to 56 nM');

Entry Anti-PILRA antibody clone 36 (antibody, V domains shown, Humanized) VH: EVQLVQSGAEVKKPGASVKVSCKASGYTFTEYYMYWVRQAPGQGLELIGRIDPEDGGTDYIEKFKNRVTLTADTSTSTAYLELSSLRSEDTAVYYCATTIRGTVFAFWGQGTLVTVSS VL: DIQMTQSPSSLSASVGDRVTITCRPSEDIYNGLAWYQQKPGKAPKLLIYNANSLHTGVPSRFSGSGSGTDYTLTISSLQPEDFATYFCQQYYDYPLTFGQGTKVEIK , Kd reported as 42 to 97 nM
